Source listed as patent US20220064327A1.

- study target: T1, human factor X (human, UniProt P00742 41-179; P00742 183-488)
- T1 construct: Zymogen used as analyte in SPR; also called FX; Human FX (MW ~58 KDa)
- T1 sequence (P00742 41-179, chain 1 of 2): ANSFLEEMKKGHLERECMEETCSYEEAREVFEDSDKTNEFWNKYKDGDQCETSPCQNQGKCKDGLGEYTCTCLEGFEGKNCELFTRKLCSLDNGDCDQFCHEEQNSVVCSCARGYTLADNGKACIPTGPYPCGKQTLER
- T1 sequence (P00742 183-488, chain 2 of 2): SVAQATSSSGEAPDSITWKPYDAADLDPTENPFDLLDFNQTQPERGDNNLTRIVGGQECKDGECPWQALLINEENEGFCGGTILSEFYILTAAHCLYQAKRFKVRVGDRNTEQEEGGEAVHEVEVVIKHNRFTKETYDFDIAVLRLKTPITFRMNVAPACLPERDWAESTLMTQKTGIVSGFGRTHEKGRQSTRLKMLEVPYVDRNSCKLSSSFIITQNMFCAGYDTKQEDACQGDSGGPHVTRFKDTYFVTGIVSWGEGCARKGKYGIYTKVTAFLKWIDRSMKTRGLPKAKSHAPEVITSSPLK
- assay procedure: SPR, IgG captured on anti-human IgG Fc, human FX as analyte
readout label: pKd
# pKd: negative log10 of molar concentration; output just the value

Example entries begin here.
Q: Which measured pKd value corresponds to TINA-0205.0128 (antibody, V domains shown, Monospecific IgG4PE) VH: QVQLVQSGAEVKKPGASVKVSCKASRYSFTSYYMHWVRQAPGQGLEWMGIINPKSGDTSYAQKFQGRVTMTRDTSTSTVYMELNSLRSEDTAVYYCARDGYGSSARCLQLWGQGTLVTVSS VL: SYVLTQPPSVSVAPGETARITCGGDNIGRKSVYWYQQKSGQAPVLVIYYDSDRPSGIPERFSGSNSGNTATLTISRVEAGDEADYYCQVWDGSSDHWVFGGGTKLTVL ?
Ans: 5.87

Q: Which measured pKd value corresponds to TINA-0209.0128 (antibody, V domains shown, Monospecific IgG4PE) VH: QVQLVQSGAEVQKPGASVKVSCKASRYSFTSYYLHWVRQAPGQGLEWMGIINPKTGDTSYAQKFQGRVTMTRDTSTTTVYMELSSLRSEDTAVYYCARDGYGSSARCLQLWGQGTLVTVSS VL: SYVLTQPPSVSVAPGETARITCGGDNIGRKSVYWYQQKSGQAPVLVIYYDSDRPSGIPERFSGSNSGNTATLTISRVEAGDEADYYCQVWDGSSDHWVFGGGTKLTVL ?
Ans: 5.94

Q: Which measured pKd value corresponds to TINA-0211.0128 (antibody, V domains shown, Monospecific IgG4PE) VH: QVQLVQSGAEVKKPGASVKVSCKASRYSFTSYYMHWVRQAPGQGLEWMGIINPKSGSTSYAQKFQGRVTMTRDTSTSTVYMDLSSLRSEDTAVYYCARDGYGSSSRCLQLWGQGTLVTVSS VL: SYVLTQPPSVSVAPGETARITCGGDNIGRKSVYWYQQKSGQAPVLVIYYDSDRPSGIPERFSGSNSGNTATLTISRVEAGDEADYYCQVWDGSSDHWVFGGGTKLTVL ?
Ans: 6.17

Q: Which measured pKd value corresponds to TINA-0204.0128 (antibody, V domains shown, Monospecific IgG4PE) VH: QVQLVQSGAEVQKTGASVKVSCKASRYSFTSYYMHWVRQAPGQGLEWMGIINPKSGSTSYAQKFQGRVTMTRDTSTSTVYMELSSLRSEDTAVYYCARDGYGSSSRCLQLWGQGTLVTVSS VL: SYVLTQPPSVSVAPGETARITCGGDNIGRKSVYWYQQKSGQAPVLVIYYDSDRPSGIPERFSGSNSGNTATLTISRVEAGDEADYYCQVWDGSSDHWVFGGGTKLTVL ?
Ans: 6.14

Q: Which measured pKd value corresponds to TINA-0201.0128 (antibody, V domains shown, Monospecific IgG4PE) VH: QVQLIQSGAEVKKPGASVKVSCKASRYSFTSYYMHWVRQAPGQGLEWMGIINPKSGSTSYAQKFQGRVTMTRDTSTSTVYMELSSLRSEDTAVYYCARDGYGSSSRCLQLWGQGTLVTVSS VL: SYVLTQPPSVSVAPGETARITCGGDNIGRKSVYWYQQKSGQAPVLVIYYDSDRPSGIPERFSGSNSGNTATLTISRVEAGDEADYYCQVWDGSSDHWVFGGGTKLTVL ?
Ans: 6.24

---
Q: Which measured pKd value corresponds to TINA-0214.0128 (antibody, V domains shown, Monospecific IgG4PE) VH: QVQLVQSGAEVKKTGASVKVSCQASRYSFTSYYMHWVRQAPGQGLEWMGIINPKSGSTSYAQKFQGRVTMTRDTSTSTVYMELSSLRSEDTAVYYCARDGYGSSSRCLQLWGQGTLVTVSS VL: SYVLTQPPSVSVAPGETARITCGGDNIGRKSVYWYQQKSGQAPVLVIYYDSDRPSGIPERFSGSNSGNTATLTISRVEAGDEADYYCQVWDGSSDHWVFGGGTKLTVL ?
Ans: 6.33

Q: Which measured pKd value corresponds to TINA-0213.0128 (antibody, V domains shown, Monospecific IgG4PE) VH: QVQLVQSGAEVKKTGASVKVSCKASRYSFTSYYMHWVRQAPGQGLEWMGIINPKSGTTSYAQKFQGRVTMTRDTSTSTVYMELSSLRSEDTAVYYCARDGYGSSSRCLQLWGQGTLVTVSS VL: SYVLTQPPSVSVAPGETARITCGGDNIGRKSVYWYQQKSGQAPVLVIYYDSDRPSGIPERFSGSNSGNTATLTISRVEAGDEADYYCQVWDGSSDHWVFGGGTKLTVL ?
Ans: 5.86

Q: Which measured pKd value corresponds to TINA-0210.0128 (antibody, V domains shown, Monospecific IgG4PE) VH: QVQLVQSGAEVKKPGASVKVSCKASRYSFTSYYMHWVRQAPGQGLEWMGIINPKSGSTSYAQKFQGRVTMTRDTSTSTVYMELNSLRSEDTAVYYCARDGYGSSSRCLQLWGQGTLVTVSS VL: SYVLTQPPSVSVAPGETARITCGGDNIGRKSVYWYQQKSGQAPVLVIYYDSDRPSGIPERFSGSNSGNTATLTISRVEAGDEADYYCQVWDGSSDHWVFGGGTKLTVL ?
Ans: 6.01

Q: Which measured pKd value corresponds to TINA-0217.0128 (antibody, V domains shown, Monospecific IgG4PE) VH: QVQLVQSGAEVTKPGASVKVSCKASRYSFTSYYMHWVRQAPGQGLEWMGIINPKSGSTSYAQKFQGRVTMTRDTSTSTVYMELSSLRSEDTAVYYCARDGYGSSSRCLQLWGQGTLVTVSS VL: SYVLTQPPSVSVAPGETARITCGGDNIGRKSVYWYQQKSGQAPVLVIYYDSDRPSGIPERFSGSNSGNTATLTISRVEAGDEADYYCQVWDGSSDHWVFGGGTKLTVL ?
Ans: 6.25

Q: Which measured pKd value corresponds to TINA-0206.0128 (antibody, V domains shown, Monospecific IgG4PE) VH: QVQLVQSGAEVKKPGASVKVSCKASRYSFTSYYMHWVRQAPGQGLEWMGIINPKSGDTSYAQKFQGRVTMTRDTSTSTVYMDLSSLRSEDTAVYYCARDGYGSSARCLQLWGQGTLVTVSS VL: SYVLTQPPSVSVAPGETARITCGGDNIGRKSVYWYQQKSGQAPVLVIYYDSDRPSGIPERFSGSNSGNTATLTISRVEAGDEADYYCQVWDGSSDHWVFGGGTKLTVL ?
Ans: 6.00

Q: Which measured pKd value corresponds to TINA-0207.0128 (antibody, V domains shown, Monospecific IgG4PE) VH: QVQLVQSGAEVKKTGASVKVSCKASRYSFTSYYMHWVRQAPGQGLEWMGIINPKSGSTSYAQKFQGRVTMTRDTSTSTVYMELSSLRSEDTAVYYCARDGYGSSSRCLQLWGQGTLVTVSS VL: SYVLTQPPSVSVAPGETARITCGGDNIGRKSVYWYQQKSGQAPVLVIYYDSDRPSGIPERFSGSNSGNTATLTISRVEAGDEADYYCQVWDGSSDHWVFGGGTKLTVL ?
Ans: 6.07
